Source listed as PubChem BioAssay AID1851.

# experimental.system: Cytochrome P450 1A2 (Homo sapiens) (UniProt P05177)
# Sequence (P05177 whole entry, looked up): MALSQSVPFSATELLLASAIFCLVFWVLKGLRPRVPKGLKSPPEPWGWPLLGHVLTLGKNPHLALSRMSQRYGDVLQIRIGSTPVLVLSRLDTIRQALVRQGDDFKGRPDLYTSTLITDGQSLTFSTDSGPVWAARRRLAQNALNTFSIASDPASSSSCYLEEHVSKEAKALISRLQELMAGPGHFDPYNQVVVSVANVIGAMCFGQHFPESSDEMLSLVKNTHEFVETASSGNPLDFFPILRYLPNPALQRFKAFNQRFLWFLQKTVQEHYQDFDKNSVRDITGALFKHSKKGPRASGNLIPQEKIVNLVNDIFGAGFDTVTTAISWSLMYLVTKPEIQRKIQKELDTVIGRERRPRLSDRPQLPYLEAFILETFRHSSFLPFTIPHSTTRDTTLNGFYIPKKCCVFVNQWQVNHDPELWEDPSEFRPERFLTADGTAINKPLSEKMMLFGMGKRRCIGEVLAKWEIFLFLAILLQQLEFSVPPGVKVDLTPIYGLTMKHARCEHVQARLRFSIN
# test.summary: Cytochrome panel assay with activity outcomes
# condition.details: recombinant CYP, pro-luciferin dealkylation, luminescence, p450-cyp1a2; series mostly up to 57.1 µM
About 5,700 (36%) of roughly 16,000 compounds were called active. Inconclusive results (about 24%) are left out. Calls follow the shape of the dose curve; as a rule, active = well fitted curve in the direction sought with a large enough effect; inconclusive = small, poorly fitted or top-dose-only effect, or effect the other way; inactive = no such curve, though single readings can be large or run the other way. This is one part of the list.
Mark one answer only. Choices: 1 (yes) for active, 0 (no) for inactive

// below: answered compounds
> print(dat)
                                   compound                       experimental.system  group.label
1         CCn1c(SCc2cccc(C)c2)nnc1-c1ccccc1  Cytochrome P450 1A2 (Homo sapiens) (UniProt P05177)      1 (yes)
2  Cc1nn2c3c(cnc2c1-c1ccccc1)C(=O)CC(c1ccccc1)C3 (stereo unspecified)  Cytochrome P450 1A2 (Homo sapiens) (UniProt P05177)      1 (yes)
3  COc1ccc(C2C3=C(CC(C)(C)CC3=O)Oc3ncn(CC(C)C)c(=N)c32)cc1 (stereo unspecified)  Cytochrome P450 1A2 (Homo sapiens) (UniProt P05177)       0 (no)
4  CCn1c(SCc2ccc(C)cc2)nnc1-c1nn(-c2ccccc2)ccc1=O  Cytochrome P450 1A2 (Homo sapiens) (UniProt P05177)       0 (no)
5             CCCc1ncc(C[n+]2ccccc2C)c(N)n1  Cytochrome P450 1A2 (Homo sapiens) (UniProt P05177)       0 (no)

Below: the item to evaluate.
Enquiry: Any idea what this test logged for Cc1ccc(Oc2cc(N3CCOCC3)nc(-c3ccccc3)n2)cc1 ?
Return: 1 (yes)
